Listing of entries alongside the reported AUC.
System: 783C-6
Experiment: High-throughput drug screen, CellTiter-Glo viability, 72 h
Format: cell-based, human
Parameters: scale not given here
Settings: 783C-6 DSRT analysis; area under the dose-response curve
Description: The cells were seeded and incubated with a gradient of concentrations of drugs for 72 h, after which the cell viability was assessed (Supplementary Fig. 1a). […] We then quantified cell viability via the CellTiter-Glo luminescent assay according to the manufacturer’s protocol. Signal detection was carried out on a Synergy2 plate reader operated by Gen5 software (BioTek). […] Drug responses were evaluated on the basis of the drug sensitivity score (DSS), and a cutoff of ≥10 was used to define efficacy. […]
Output: the number by itself.

compound	targetOrSystem	AUC
Cc1sc2c(c1C)C(c1ccc(Cl)cc1)=N[C@@H](CC(N)=O)c1nnc(C)n1-2 [CPI-203]	783C-6	3.2
CNC(=O)c1ccccc1Sc1ccc2c(/C=C/c3ccccn3)n[nH]c2c1 [Axitinib]	783C-6	2.8
CS(=O)(=O)CCNCc1ccc(-c2ccc3ncnc(Nc4ccc(OCc5cccc(F)c5)c(Cl)c4)c3c2)o1 [Lapatinib]	783C-6	2

Prompt: Consider the compound CN(C)Cc1c(C(=O)NCCOc2ccc(C(=O)NO)cc2)oc2ccccc12 [Abexinostat] and give its recorded AUC.
Response: 48.2

* * *

Listing of recorded AUC by entry.
System: 783C-6
Experiment: High-throughput drug screen, CellTiter-Glo viability, 72 h
Format: cell-based, human
Design: scale not given here
Details: 783C-6 DSRT analysis; area under the dose-response curve
# output: bare number, no unit

compound	AUC
Cc1csc(-c2nnc(Nc3ccc(Oc4ncccc4-c4ccnc(N)n4)cc3)c3ccccc23)c1 [AMG-900]	52.5
O=C(/C=C/c1ccc(CN(CCO)CCc2c[nH]c3ccccc23)cc1)NO [Dacinostat]	99
O=C(O[C@@H]1Cc2c(O)cc(O)cc2O[C@@H]1c1cc(O)c(O)c(O)c1)c1cc(O)c(O)c(O)c1 [(-)-Epigallocatechin Gallate]	22.9

Prompt: Under 783C-6: report AUC of CCN1CCN(C(=O)Cc2ccc(Nc3ncc(F)c(Nc4ccc(C(=O)Nc5ccccc5Cl)cc4)n3)cc2)CC1 [Aurora A Inhibitor I] .
Response: 41.2

* * *

Test system: 783C-6
Test: High-throughput drug screen, CellTiter-Glo viability, 72 h
Assay type: cell-based, human
Settings: 783C-6 cells, DSS of DSRT analysis
Listing: DSS of selected molecules
No unit in the answer, only the number.

Prompt: Provide only the value of recorded DSS for COc1cc2c(NC3CCN(C(C)C)CC3)nc(C3CCCCC3)nc2cc1OCCCN1CCCC1
Response: 2

Prompt: Assign DSS to the following record: O=C(CCCCCCC(=O)NO)NO [Suberohydroxamic acid]
Response: 0

Prompt: Give the measured DSS for COc1ccc(CCc2nc3cc(-c4c(C)noc4C)ccc3n2C[C@H](C)N2CCOCC2)cc1Cl
Response: 0

Prompt: Check the records and state DSS for CCN(c1cc(-c2ccc(CN3CCOCC3)cc2)cc(C(=O)NCc2c(C)cc(C)[nH]c2=O)c1C)C1CCOCC1
Response: 0

* * *

Tested on: 783C-6
Assay: High-throughput drug screen, CellTiter-Glo viability, 72 h
Type: cell-based, human
Settings: 783C-6 cells, DSS of DSRT analysis
Listed here are molecules together with their documented DSS.
Give the value as a plain number.

Study these solved cases before continuing.
molecule	targetOrSystem	endpointLabel	assayValue
CCCCNNC(=O)c1ccc(-c2cccc(F)c2F)cc1 [SR-4370]	783C-6	DSS	6.1
Nc1ccccc1NC(=O)c1ccc(CNc2nccc(-c3cccnc3)n2)cc1 [Mocetinostat]	783C-6	DSS	11.6
O=C1NC(=O)/C(=C/c2cccc(C(F)(F)F)c2)S1 [SMI-4a]	783C-6	DSS	0
CCOC(=O)NCCCC(=O)NCCc1ccccc1 [Santacruzamate A]	783C-6	DSS	0
COc1cccc2c1c(O)c(C(=O)N(C)c1ccc(C(F)(F)F)cc1)c(=O)n2C [Tasquinimod]	783C-6	DSS	0
CCCC(=O)[O-].[Na+] [Sodium butyrate]	783C-6	DSS	0

Prompt: Please supply the value of reported DSS for the item CCCCCCCCCCCCCCCCNNC(=O)c1cccs1 [SIS17]
Response: 0

Prompt: Kindly indicate its recorded DSS. Item: COc1cc2c(NC3CCN(C(C)C)CC3)nc(N3CCC(F)(F)CC3)nc2cc1OCCCN1CCCC1 [UNC0642]
Response: 0

Prompt: Note down DSS recorded for Cc1ccc(C(=O)Nc2ccc(CN3CCN(C)CC3)c(C(F)(F)F)c2)cc1C#Cc1cnc2cccnn12 [Ponatinib]
Response: 7

Prompt: Output DSS of N#Cc1c(-c2ccccc2)cc(-c2cc(Br)ccc2O)[nH]c1=O [TCS PIM-1 1]
Response: 0

Prompt: Quick one: give measured DSS for C[C@@H]1COC(Nc2ccc3ncnc(Nc4ccc(OCc5nccs5)c(Cl)c4)c3c2)=N1 [Varlitinib]
Response: 1.5

Prompt: Please give measured DSS of the following entry: CCCC(CCC)C(=O)O [Valproic acid]
Response: 0

Prompt: Give DSS for the following molecule: CN1CCC(CNc2ccc3ncc(-c4cccc(OC(F)(F)F)c4)n3n2)CC1 [SGI-1776 free base]
Response: 4.9

Prompt: Please look at this molecule and report its DSS: Cc1cc(-c2ccccc2)cc(C(=O)NNS(=O)(=O)c2cccc(O)c2)c1F [WM-3835]
Response: 0
